All values here come from ChEMBL document CHEMBL5665440.

- Protocol text: Human liver microsomal stability of compound in microsomal protein, PBS buffer pH 7.4, NADPH, glucose-6-phosphate and glucose-6-phosphate dehydrogenase media. Aliquotes were taken at 5 time points and after stopping the reaction, supernatants were analyzed using HPLC coupled with a tandem mass spectrometer. The elimination constant, half-life, and intrinsic clearance are determined as results using linear regression analysis. Note: time not given here.
- Format: ADME, microsomes, Microsome
- Details: microsomes
Assay endpoint: Remaining (without cofactor) (%)

1. CNC(=O)c1cc(Cl)ccc1NS(=O)(=O)c1ccc(Oc2ccccc2Cl)cc1
94
2. COc1cc(Cl)cc([C@H](Nc2ccc3c(c2)CNC3)C(=O)NCC(F)F)c1
107.924
3. NCc1cccc(NC(=O)[C@@H](NC(=O)OCc2ccccc2)c2ccc(OCc3ccccc3)cc2)c1
100
4. COCc1cc(Cl)cc([C@H](Nc2ccc3c(c2)CNC3)C(=O)NCC(F)F)c1
112.017
5. N#C[C@H](Nc1ccc2c(c1)CNC2)c1cc(Cl)cc2[nH]ncc12
84.336
6. OCC#C[C@H](Nc1ccc2c(c1)CNC2)c1cc(Cl)cc2[nH]ncc12
103.012
7. O=C(Nc1cc(Cl)cc(C(=O)Nc2cccc(-c3nnn[nH]3)c2)c1)OCc1ccccc1
100.499
8. O=C(NCCCF)[C@H](Nc1ccc2c(c1)CNC2)c1cc(Cl)cc(C2CC2)c1
95.756
9. N#C[C@H](Nc1cccc(-c2nn[nH]n2)c1)c1cc(Cl)cc(NC(=O)OCc2ccccc2)c1
110.789
10. c1ccc2c(CN3CCC(c4c[nH]c5cccnc45)CC3)c[nH]c2c1
103.226
11. O=C(Nc1cc(Cl)cc([C@H]2CN(Cc3ccccc3)C[C@@H]2c2cccc(-c3nn[nH]n3)c2)c1)OCc1ccccc1
96.205
12. O=C(NCC(F)(F)F)c1cc(Cl)c(F)cc1NS(=O)(=O)c1ccc(Oc2ccccc2Cl)cc1
104
13. NCCc1ccc(NC(=O)c2cc(Cl)cc(NC(=O)OCc3ccccc3)c2)cc1
74.637
14. Cc1cc(OCc2ccccc2)ccc1NS(=O)(=O)c1ccc(Cl)cc1C(=O)O
101.396
15. O=C(Nc1cc(Cl)cc([C@H](Nc2cccc(-c3nn[nH]n3)c2)C(=O)NCc2ccccc2)c1)OCc1ccccc1
99.519
16. O=C(NCC(F)F)[C@H](Nc1ccc2c(c1)CNC2)c1cc(Cl)cc2ccoc12
103.719
17. COc1ccc(-c2nc3c(C(=O)Nc4ccc5c(c4)CNC5)cc(F)cc3[nH]2)nn1
99.462
18. O=C(O)c1cc(Cl)ccc1NS(=O)(=O)c1ccc(Oc2ccccc2Cl)cc1
110.535
19. O=C(Nc1cc(Cl)cc(-c2ccc3[nH]c(C(=O)O)cc3c2)c1)OCc1ccccc1
98.779
20. COc1cc(-c2cc(NC(=O)c3cc(F)cc4[nH]ncc34)cc3c2CNC3)ccn1
101.002
21. O=C(Nc1ccc2c(c1)CNC2)c1cc(Br)cc2[nH]c(-c3ccccc3)nc12
94.891
22. Cn1ncc2c(C(=O)Nc3ccc4c(c3)CNC4)cc(Cl)cc21
101.456
23. N#C[C@H](Nc1cccc(C(=O)O)c1)c1cc(Cl)cc2[nH]ncc12
89.628
24. O=C(Nc1ccc2c(c1)CNC2)c1cc(Cl)cc2c1CCC2
101.935
